# Tested on: HCT-116 colon
# Experiment: NCI-60 one-dose screen, 48 h
# Condition summary: 10 µM unless noted
# Method: Growth inhibition of the HCT-116 human tumor cell line is measured as a screen for anti-cancer activity. Cells are grown in 96 well plates and exposed to the test compound for 48 hours. Compounds are tested at a single concentration, which is 10^-5 M for most compounds. The reported endpoint is percent growth (GI% or GIPRCNT), where numbers from 0 - 100% represent growth inhibition, and numbers from -100% - 0 represent cell death. For example, a value of 40 represents 60% growth inhibition. […]
About 83,000 compounds went through this panel and 20% of them were active in at least one assay; those are over-represented in the sample as a whole. Active and inactive are the calls of the source. The calls were made as follows: active = growth percent below 10; inactive = the rest.
Answer with one of the outcomes 1.0 = active, 0.0 = inactive

Example entries begin here.
Request: Could you kindly confirm the outcome this assay logged for "CCCCn1c(=O)c(-c2cc(-c3ccc(Cl)cc3)nc(-c3ccc(Cl)cc3)c2)cc2ccc(Cl)cc21" ?
Response: 0.0

Request: Could you kindly confirm the outcome this assay logged for "O=c1c2cc(F)ccc2sc2c(NCCN3CCOCC3)nc3ccccc3c12" ?
Response: 0.0

Request: Could you kindly confirm the outcome this assay logged for "CCOC(=O)Cn1c(C)c(/C=N/NC(=O)c2cc3c(ccc4ccccc43)o2)c2ccccc21" ?
Response: 1.0

Request: Could you kindly confirm the outcome this assay logged for "O=c1n(Cc2ccc3ccccc3c2)ccn1Cc1ccc2ccccc2c1" ?
Response: 0.0

Request: Could you kindly confirm the outcome this assay logged for "COc1cc(C(=O)N/N=C/c2cc3cc(OCc4ccccc4)ccc3nc2OC)cc(OC)c1OC" ?
Response: 0.0

Continuing:
Request: Could you kindly confirm the outcome this assay logged for "CCOC(=O)c1sc2ncc(-c3ccc(C)cc3)n2c1C" ?
Response: 0.0

Request: Could you kindly confirm the outcome this assay logged for "O=C1NC(=O)C(c2ccccc2)(c2ccccc2)N1Cc1cn(-c2c3ccccc3nc3ccccc23)nn1" ?
Response: 0.0

Request: Could you kindly confirm the outcome this assay logged for "Cc1ccc2sc3c(NCCN)nc4ccccc4c3c(=O)c2c1" ?
Response: 1.0

Request: Could you kindly confirm the outcome this assay logged for "COc1cc(CCC[P+](c2ccccc2)(c2ccccc2)c2ccccc2)c(OC)c(OC)c1OC" ?
Response: 0.0

Request: Could you kindly confirm the outcome this assay logged for "Nc1nc(-c2cccc3ccccc23)cc2ccccc12" ?
Response: 0.0

Request: Could you kindly confirm the outcome this assay logged for "O=C(Nc1nc2ccc(F)cc2s1)c1cccnc1Nc1ccc(Cl)cc1Cl" ?
Response: 0.0

Request: Could you kindly confirm the outcome this assay logged for "COc1cccc(Cc2cc(-c3ccccc3)nn(CC(=O)c3ccccc3)c2=O)c1" ?
Response: 0.0

Request: Could you kindly confirm the outcome this assay logged for "O=C(N/N=C/c1ccc(Cl)cc1)c1ccc(C(F)(F)F)nc1Nc1cccc(C(F)(F)F)c1" ?
Response: 1.0

Request: Could you kindly confirm the outcome this assay logged for "CCCCCCCCCCCCCCCCCCOc1ccccc1CCCOP(=O)(O)OCC[N+](C)(C)C" ?
Response: 0.0

Request: Could you kindly confirm the outcome this assay logged for "CCCCCCn1c(-c2ccc(C(=O)O/N=C(\N)c3ccc4ccccc4c3)cc2)nc(-c2ccccc2)c1-c1ccccc1" ?
Response: 0.0

Request: Could you kindly confirm the outcome this assay logged for "CS(=O)(=O)N(c1cc(-c2ccc3ncnc(Nc4ccc(F)c(Cl)c4)c3c2)cnc1Cl)S(C)(=O)=O" ?
Response: 0.0

Request: Could you kindly confirm the outcome this assay logged for "CN(C)CCNc1nc2ccccc2c2c(=O)c3cc(F)ccc3sc12" ?
Response: 1.0

Request: Could you kindly confirm the outcome this assay logged for "CN(C)CCS(=O)(=O)Nc1cc(-c2ccc3ncc(C#N)c(Nc4ccc(F)c(Cl)c4)c3c2)cnc1Cl" ?
Response: 1.0

Request: Could you kindly confirm the outcome this assay logged for "CCOC(=O)/C=C1\S/C(=N\Nc2ccc([N+](=O)[O-])cc2[N+](=O)[O-])N(Cc2ccccc2)C1=O" ?
Response: 0.0

Request: Could you kindly confirm the outcome this assay logged for "c1ccc2c(-c3nc(-c4c[nH]c5ccncc45)cs3)c[nH]c2c1" ?
Response: 1.0

* * *

# Test system: NCI-H23 lung
# Experiment: NCI-60 one-dose screen, 48 h
# Condition summary: 10 µM unless noted
This is part of a sample that, as a whole, favours compounds with a hit. Of some 83,000 tested, about 20% had one in any assay. Active and inactive are the calls of the source. How the source made its calls: active means growth percent below 10; inactive means the rest.
Answer with one of the outcomes y for active, n for inactive

Example entries begin here.
Request: Could you kindly confirm the outcome this assay logged for "COc1ccc2sc3c(NCCCN(C)C)nc4ccccc4c3c(=O)c2c1" ?
Response: n

Request: Could you kindly confirm the outcome this assay logged for "COc1ccc(C(=O)N=Nc2c(O)n(C)c3ccccc23)cc1" ?
Response: n

Request: Could you kindly confirm the outcome this assay logged for "Cc1ccc(-c2nn(C)c(=O)c3noc(-c4ccc(C)cc4)c23)cc1" ?
Response: n

Request: Could you kindly confirm the outcome this assay logged for "CCCCCCCCCCCCCCCCCCOc1ccccc1CCCOP(=O)(O)OCC[N+](C)(C)C" ?
Response: n

Request: Could you kindly confirm the outcome this assay logged for CCOC(=O)C1=C(N)Oc2c(sc3c(C)cccc23)C1c1ccc(F)cc1 (centres undefined) ?
Response: n

Continuing:
Request: Could you kindly confirm the outcome this assay logged for O=C(CS(=O)c1oc(-c2cccs2)nc1S(=O)(=O)c1ccc(Br)cc1)c1ccccc1 (centres undefined) ?
Response: n

Request: Could you kindly confirm the outcome this assay logged for CNC(C)[C@H]1CCC2C3CCC4C[C@@H](N(C)C(=O)c5ccccc5)CC[C@]4(C)C3CC[C@@]21C (some centres undefined) ?
Response: n

Request: Could you kindly confirm the outcome this assay logged for "CCc1ccc(Oc2c(-c3ccc(OCc4ccc(Cl)cc4)cc3O)n[nH]c2C(F)(F)F)cc1" ?
Response: y

* * *

# System: HCC-2998 colon
# Experiment: NCI-60 one-dose screen, 48 h
# Condition summary: 10 µM unless noted
This is part of a sample that, as a whole, favours compounds with a hit. Of some 83,000 tested, about 20% had one in any assay. Activity calls are given as the source filed them. Rule for the calls: active = growth percent below 10; inactive = the rest.
Answer with one of the outcomes active, inactive

Example entries begin here.
Request: Could you kindly confirm the outcome this assay logged for "CN(C)CC#Cc1ccc2ncc(C#N)c(Nc3ccc(F)c(Cl)c3)c2c1" ?
Response: inactive

Request: Could you kindly confirm the outcome this assay logged for Cc1cc(O)c(C2=NN(c3ccc(S(N)(=O)=O)cc3)C(c3ccccc3O)C2)cc1Cl (stereo not given) ?
Response: active

Request: Could you kindly confirm the outcome this assay logged for "CCOC(=O)c1cn2ncnc(Oc3ccc(NC(=O)NCCN(C)C)c(Cl)c3)c2c1C" ?
Response: inactive

Request: Could you kindly confirm the outcome this assay logged for CCC12CCC[N+]3([O-])CCC4(C(=Nc5ccccc54)C(O)(C(=O)OC)C1)C23 (stereo not given) ?
Response: inactive

Request: Could you kindly confirm the outcome this assay logged for "CCc1ccccc1-n1c(N)c(C#N)c(-c2ccc(Cl)cc2)c(C#N)c1=O" ?
Response: inactive

Continuing:
Request: Could you kindly confirm the outcome this assay logged for "Cc1ccc2nc(NC(=O)CSc3nc(Cl)c(C#N)c(-c4ccccc4)n3)sc2c1" ?
Response: inactive

Request: Could you kindly confirm the outcome this assay logged for "CC(C)n1cnc2c(Nc3cccc(Cl)c3)nc(N[C@H]3CCCC[C@@H]3N)nc21" ?
Response: inactive

Request: Could you kindly confirm the outcome this assay logged for NC1=C(c2nn[nH]n2)C(c2ccccc2Cl)c2ccc3ccccc3c2O1 (stereo not given) ?
Response: inactive

* * *

# Tested on: CAKI-1 renal
# Experiment: NCI-60 one-dose screen, 48 h
# Condition summary: 10 µM unless noted
# Procedure: Growth inhibition of the CAKI-1 human tumor cell line is measured as a screen for anti-cancer activity. Cells are grown in 96 well plates and exposed to the test compound for 48 hours. Compounds are tested at a single concentration, which is 10^-5 M for most compounds. The reported endpoint is percent growth (GI% or GIPRCNT), where numbers from 0 - 100% represent growth inhibition, and numbers from -100% - 0 represent cell death. For example, a value of 40 represents 60% growth inhibition. […]
About 83,000 compounds went through this panel and 20% of them were active in at least one assay; those are over-represented in the sample as a whole. Calls of active or inactive are those of the source. The calls were made as follows: active = growth percent below 10; inactive = the rest.
Answer with one of the outcomes active, inactive

Example entries begin here.
Request: Could you kindly confirm the outcome this assay logged for CN1C(=O)N(C)C2Nn3c(s/c(=C\c4ccccc4)c3=O)=NC21 (stereo not given) ?
Response: inactive

Request: Could you kindly confirm the outcome this assay logged for "C=CCNc1ccc2c3c(cccc13)C(=O)N(N1C(=O)c3cccc4cccc(c34)C1=O)C2=O" ?
Response: inactive

Request: Could you kindly confirm the outcome this assay logged for "O=C(Nc1ccc(I)cc1F)c1cc(I)ccc1O" ?
Response: active

Query molecule follows.
Request: Could you kindly confirm the outcome this assay logged for "Cc1nc2ccccc2c(/C=C/c2ccccc2)c1C(=O)/C=C/c1ccc(C(F)(F)F)cc1" ?
Response: active
